All figures here come from patent US5231093A.

Listed next: entries and their corresponding pIC50.
Biological target: acetylcholinesterase (Rattus norvegicus, UniProt P37136)
Construct: corpora striata dissected free, weighed and homogenized in 19 volumes
Sequence (P37136 32-614): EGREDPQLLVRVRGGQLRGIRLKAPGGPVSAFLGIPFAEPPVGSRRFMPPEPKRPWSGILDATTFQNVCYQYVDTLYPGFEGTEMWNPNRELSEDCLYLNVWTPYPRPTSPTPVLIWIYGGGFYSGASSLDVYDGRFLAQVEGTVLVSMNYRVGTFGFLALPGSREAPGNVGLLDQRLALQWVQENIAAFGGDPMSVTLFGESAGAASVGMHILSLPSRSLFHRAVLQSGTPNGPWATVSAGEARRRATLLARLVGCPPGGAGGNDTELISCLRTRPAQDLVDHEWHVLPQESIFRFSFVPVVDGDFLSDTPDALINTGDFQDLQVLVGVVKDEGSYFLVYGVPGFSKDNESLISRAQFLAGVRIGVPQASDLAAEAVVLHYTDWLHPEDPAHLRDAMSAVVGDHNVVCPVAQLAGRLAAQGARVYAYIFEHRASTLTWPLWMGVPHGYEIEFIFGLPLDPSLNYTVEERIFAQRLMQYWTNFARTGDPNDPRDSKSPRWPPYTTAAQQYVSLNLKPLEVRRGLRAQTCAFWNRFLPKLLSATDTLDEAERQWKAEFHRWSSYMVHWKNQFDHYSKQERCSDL
Test: In Vitro Inhibition of Acetylcholinesterase Activity in Rat Striatum
pIC50: −log10 of the molar value. Structures can show the parent of a compound that is named as a salt.

COMPOUND	TARGET OR SYSTEM	pIC50
CN1CC[C@@]2(C)c3cc(OC(=O)N[C@@H]4CON(Cc5ccccc5)C4=O)ccc3N(C)[C@@H]12 [hemihydrate]	acetylcholinesterase (Rattus norvegicus, UniProt P37136)	6.30
CN1CC[C@@]2(C)c3cc(OC(=O)N[C@@H]4CCN(O)C4=O)ccc3N(C)[C@@H]12 [citrate salt]	acetylcholinesterase (Rattus norvegicus, UniProt P37136)	5.64
CN1CC[C@@]2(C)c3cc(OC(=O)N[C@@H]4CCN(OCc5ccccc5)C4=O)ccc3N(C)[C@@H]12	acetylcholinesterase (Rattus norvegicus, UniProt P37136)	7.17
